molecular target: Cyclin-dependent kinase 2/G1/S-specific cyclin-E1 (Homo sapiens, UniProt P24941)
assayReadout: IC50 (nM)

[[record]]
smilestext = "CC(C)(C)Nc1nc(C(F)(F)F)nc2ccc(-c3cccc(-c4cccnc4)c3)cc12"
quantityunit = "nM"
observed = 1200


----------
biological target: Cyclin-dependent kinase 4/G1/S-specific cyclin-D1 (Homo sapiens); experiment: Kinase Inhibition Assay
Sequence (P11802 whole entry): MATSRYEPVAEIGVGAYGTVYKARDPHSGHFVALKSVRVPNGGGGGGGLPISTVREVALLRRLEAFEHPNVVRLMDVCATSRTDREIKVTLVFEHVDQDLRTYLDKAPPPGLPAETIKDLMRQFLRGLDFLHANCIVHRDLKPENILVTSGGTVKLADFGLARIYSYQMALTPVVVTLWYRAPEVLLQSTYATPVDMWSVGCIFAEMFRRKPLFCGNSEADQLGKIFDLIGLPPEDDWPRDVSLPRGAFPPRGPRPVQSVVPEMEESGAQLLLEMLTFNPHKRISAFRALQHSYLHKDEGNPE
Sequence (P24385 whole entry, further chain): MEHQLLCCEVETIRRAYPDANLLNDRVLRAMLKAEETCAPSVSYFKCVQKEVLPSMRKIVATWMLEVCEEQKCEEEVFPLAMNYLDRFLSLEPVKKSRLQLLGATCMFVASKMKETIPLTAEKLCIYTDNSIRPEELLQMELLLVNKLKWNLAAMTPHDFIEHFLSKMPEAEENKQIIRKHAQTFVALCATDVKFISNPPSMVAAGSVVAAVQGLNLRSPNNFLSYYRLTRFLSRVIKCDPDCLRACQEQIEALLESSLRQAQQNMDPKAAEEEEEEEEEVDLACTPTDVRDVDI
pIC50: −log10 of the molar value.
assayReadout: pIC50

[[record]]
smilestext = "CC(C)(C)Nc1nc(C(F)(F)F)nc2ccc(-c3cccc(-c4cccnc4)c3)cc12"
observed = 5.08

